For each record, write down the corresponding Percent Effect.
- System: Trypanosoma cruzi
- protocolDetails: Trypanosoma cruzi phosphomannomutase and mannose-1-phosphate guanylyltransferase assay
- Type: functional
- Set-up: scale not given: direction of the effect not stated beside the values
- setupConditions: 10 µM
Give bare numbers, in %.

Example results:
In [3]: df
Out[3]:
                                   molecule  resultnumber
0  Cn1cc(C2CC(=O)NC23CCN(CC2CC2)CC3)cn1 (configuration not stated)          2.32
1  COCCN1CCc2cc(C(=O)N(C)C)c(NCC3CC3)nc2CC1         -5.38
2  CCN(CC1CCOC1)C(=O)Nc1ccc(OC)nc1 (configuration not stated)          2.35
3        CCN1CCC2(CCC(=O)N2Cc2cccc(C)n2)CC1        -0.188
4  c1cnnc(N2CCCC(NCc3cn4ccccc4n3)C2)c1 (configuration not stated)         -10.8
5    CN1CCN(C2CCN(CC(=O)NCC(F)(F)F)CC2)C1=O          7.46
6   CCn1ccnc1CN1CCCN(C(=O)c2cccc(C#N)c2)CC1          7.79
7  CCn1cc(CN2CCc3nc(N4CCOCC4)nc(O)c3CC2)cn1         0.988
8  CC(C)(O)CN1CCN(C(=O)c2cc(Cl)cc3cccnc23)CC1          2.54
9  O=C1CCC2(CCCN(C(=O)c3cscn3)C2)CN1CCc1c[nH]cn1 (configuration not stated)          6.98

Give one value of Percent Effect per listed molecule.
1. Cc1cnc(CN(C)C2CCN(CCc3cnn(C)c3)C2)o1 (configuration not stated)
2. CC(C)OCCCNC(=O)CS(=O)(=O)Cc1ccc(Cl)c(Cl)c1

Result:
1. -1
2. -5.8
